Test system: Staphylococcus aureus
Assay Protocol: Antimicrobial activity against Staphylococcus aureus at 10 ug/disk after 24 hrs by disk diffusion assay
Format: functional
Measurement Conditions: read-out: IZ
Listing of entries alongside the reported zone of inhibition at 10 µg/disc.
Answer by giving the amount and then stating its unit.

Example cases with answers are listed next.
// zone of inhibition at 10 µg/disc lookup, key: CC1(C)S[C@@H]2[C@H](NC(=O)[C@H](N)c3ccccc3)C(=O)N2[C@H]1C(=O)O
8 mm

Here is the next compound: CN[C@@H]1[C@H](O[C@H]2[C@H](O[C@H]3[C@H](O)[C@@H](O)[C@H](N=C(N)N)[C@@H](O)[C@@H]3N=C(N)N)O[C@@H](C)[C@]2(O)C=O)O[C@@H](CO)[C@H](O)[C@H]1O
13 mm

Here is the next compound: N#Cc1c(-c2ccco2)cc(-c2ccc(Nc3nc(Nc4ccccc4)nc(Nc4ccccc4)n3)cc2)nc1N
6 mm

Now examine the next entry.
// zone of inhibition at 10 µg/disc lookup, key: Nc1nc(-c2ccc(Cl)cc2)cc(-c2ccc(Nc3nc(Nc4ccccc4)nc(Nc4ccccc4)n3)cc2)n1
7 mm

----------
System: Staphylococcus aureus
Assay Protocol: Antimicrobial activity against Staphylococcus aureus after 24 hrs by microdilution technique
Assay type: functional
Listing of entries alongside the reported MIC.
Quick reminder: number only, in µM, skip the unit.

// MIC lookup, key: CN[C@@H]1[C@H](O[C@H]2[C@H](O[C@H]3[C@H](O)[C@@H](O)[C@H](N=C(N)N)[C@@H](O)[C@@H]3N=C(N)N)O[C@@H](C)[C@]2(O)C=O)O[C@@H](CO)[C@H](O)[C@H]1O
172

Here is the next compound: N#Cc1c(-c2ccc([N+](=O)[O-])cc2)cc(-c2ccc(Nc3nc(Nc4ccccc4)nc(Nc4ccccc4)n3)cc2)nc1N
338

Here is the next compound: COc1ccccc1/C=C/C(=O)c1ccc(Nc2nc(Nc3ccccc3)nc(Nc3ccccc3)n2)cc1
134

Here is the next compound: O=C(/C=C/c1ccc(Cl)cc1)c1ccc(Nc2nc(Nc3ccccc3)nc(Nc3ccccc3)n2)cc1
386

Here is the next compound: N#Cc1c(-c2ccc(Cl)cc2)cc(-c2ccc(Nc3nc(Nc4ccccc4)nc(Nc4ccccc4)n3)cc2)nc1N
172

Continuing:
// MIC lookup, key: CC1(C)S[C@@H]2[C@H](NC(=O)[C@H](N)c3ccccc3)C(=O)N2[C@H]1C(=O)O
248

Here is the next compound: COc1ccccc1-c1cc(-c2ccc(Nc3nc(Nc4ccccc4)nc(Nc4ccccc4)n3)cc2)nc(N)c1C#N
173

Here is the next compound: COc1ccccc1-c1cc(-c2ccc(Nc3nc(Nc4ccccc4)nc(Nc4ccccc4)n3)cc2)nc(N)n1
90.5

Here is the next compound: Nc1nc(-c2ccc(Cl)cc2)cc(-c2ccc(Nc3nc(Nc4ccccc4)nc(Nc4ccccc4)n3)cc2)n1
179

Here is the next compound: N#Cc1c(-c2ccco2)cc(-c2ccc(Nc3nc(Nc4ccccc4)nc(Nc4ccccc4)n3)cc2)nc1N
186

Here is the next compound: Nc1nc(-c2ccc(Nc3nc(Nc4ccccc4)nc(Nc4ccccc4)n3)cc2)cc(-c2cccs2)n1
189

----------
Test system: Micrococcus flavus
Assay Protocol: Antimicrobial activity against Micrococcus flavus at 1 umol/spot after 18 hrs by TLC-bioautographic method
Type: functional
The source made the active and inactive calls. No cut-off for these calls is given here.
Property: inhibition zone (IZ)

Example cases with answers are listed next.
// inhibition zone (IZ) lookup, key: N#Cc1c(-c2ccc([N+](=O)[O-])cc2)cc(-c2ccc(Nc3nc(Nc4ccccc4)nc(Nc4ccccc4)n3)cc2)nc1N
0.07 millimeter

Here is the next molecule: CC1(C)S[C@@H]2[C@H](NC(=O)[C@H](N)c3ccccc3)C(=O)N2[C@H]1C(=O)O
inactive

Here is the next molecule: N#Cc1c(-c2ccc(Cl)cc2)cc(-c2ccc(Nc3nc(Nc4ccccc4)nc(Nc4ccccc4)n3)cc2)nc1N
0.07 millimeter

Here is the next molecule: CC(=O)N1N=C(c2ccc(Nc3nc(Nc4ccccc4)nc(Nc4ccccc4)n3)cc2)CC1c1cccs1 (stereo not drawn)
inactive

Here is the next molecule: O=C(/C=C/c1ccc(Cl)cc1)c1ccc(Nc2nc(Nc3ccccc3)nc(Nc3ccccc3)n2)cc1
0.07 millimeter

Here is the next molecule: Nc1nc(-c2ccc(Nc3nc(Nc4ccccc4)nc(Nc4ccccc4)n3)cc2)cc(-c2ccco2)n1
0.07 millimeter

Here is the next molecule: CC(=O)N1N=C(c2ccc(Nc3nc(Nc4ccccc4)nc(Nc4ccccc4)n3)cc2)CC1c1ccc(Cl)cc1 (stereo not drawn)
inactive

Here is the next molecule: CN[C@@H]1[C@H](O[C@H]2[C@H](O[C@H]3[C@H](O)[C@@H](O)[C@H](N=C(N)N)[C@@H](O)[C@@H]3N=C(N)N)O[C@@H](C)[C@]2(O)C=O)O[C@@H](CO)[C@H](O)[C@H]1O
0.05 millimeter

Here is the next molecule: O=C(/C=C/c1ccco1)c1ccc(Nc2nc(Nc3ccccc3)nc(Nc3ccccc3)n2)cc1
0.07 millimeter

Here is the next molecule: N#Cc1c(-c2cccs2)cc(-c2ccc(Nc3nc(Nc4ccccc4)nc(Nc4ccccc4)n3)cc2)nc1N
0.08 millimeter

Continuing:
// inhibition zone (IZ) lookup, key: COc1ccccc1-c1cc(-c2ccc(Nc3nc(Nc4ccccc4)nc(Nc4ccccc4)n3)cc2)nc(N)n1
0.06 millimeter

Here is the next molecule: Nc1nc(-c2ccc(Cl)cc2)cc(-c2ccc(Nc3nc(Nc4ccccc4)nc(Nc4ccccc4)n3)cc2)n1
0.07 millimeter

Here is the next molecule: Nc1nc(-c2ccc(Nc3nc(Nc4ccccc4)nc(Nc4ccccc4)n3)cc2)cc(-c2ccc([N+](=O)[O-])cc2)n1
0.07 millimeter

Here is the next molecule: O=C(/C=C/c1ccc([N+](=O)[O-])cc1)c1ccc(Nc2nc(Nc3ccccc3)nc(Nc3ccccc3)n2)cc1
0.05 millimeter

Here is the next molecule: N#Cc1c(-c2ccco2)cc(-c2ccc(Nc3nc(Nc4ccccc4)nc(Nc4ccccc4)n3)cc2)nc1N
inactive

Here is the next molecule: COc1ccccc1/C=C/C(=O)c1ccc(Nc2nc(Nc3ccccc3)nc(Nc3ccccc3)n2)cc1
inactive

Here is the next molecule: Nc1nc(-c2ccc(Nc3nc(Nc4ccccc4)nc(Nc4ccccc4)n3)cc2)cc(-c2cccs2)n1
0.08 millimeter

Here is the next molecule: COc1ccccc1-c1cc(-c2ccc(Nc3nc(Nc4ccccc4)nc(Nc4ccccc4)n3)cc2)nc(N)c1C#N
0.06 millimeter

----------
Tested on: Enterobacter cloacae
Assay Protocol: Antimicrobial activity against Enterobacter cloacae at 1 umol/disk after 24 hrs by disk diffusion assay
Assay type: functional
Activity calls are given as the source filed them. No cut-off for these calls is given here.
Property: inhibition zone (IZ)

// inhibition zone (IZ) lookup, key: N#Cc1c(-c2cccs2)cc(-c2ccc(Nc3nc(Nc4ccccc4)nc(Nc4ccccc4)n3)cc2)nc1N
inactive

Here is the next molecule: Nc1nc(-c2ccc(Nc3nc(Nc4ccccc4)nc(Nc4ccccc4)n3)cc2)cc(-c2ccco2)n1
inactive

Here is the next molecule: N#Cc1c(-c2ccco2)cc(-c2ccc(Nc3nc(Nc4ccccc4)nc(Nc4ccccc4)n3)cc2)nc1N
inactive

Here is the next molecule: CC(=O)N1N=C(c2ccc(Nc3nc(Nc4ccccc4)nc(Nc4ccccc4)n3)cc2)CC1c1ccco1 (configuration not stated)
inactive

Here is the next molecule: N#Cc1c(-c2ccc([N+](=O)[O-])cc2)cc(-c2ccc(Nc3nc(Nc4ccccc4)nc(Nc4ccccc4)n3)cc2)nc1N
inactive

Here is the next molecule: COc1ccccc1-c1cc(-c2ccc(Nc3nc(Nc4ccccc4)nc(Nc4ccccc4)n3)cc2)nc(N)c1C#N
inactive

Here is the next molecule: O=C(/C=C/c1ccc([N+](=O)[O-])cc1)c1ccc(Nc2nc(Nc3ccccc3)nc(Nc3ccccc3)n2)cc1
inactive

Here is the next molecule: CC(=O)N1N=C(c2ccc(Nc3nc(Nc4ccccc4)nc(Nc4ccccc4)n3)cc2)CC1c1cccs1 (configuration not stated)
inactive

Now examine the next entry.
// inhibition zone (IZ) lookup, key: CC(=O)N1N=C(c2ccc(Nc3nc(Nc4ccccc4)nc(Nc4ccccc4)n3)cc2)CC1c1ccc(Cl)cc1 (configuration not stated)
inactive

----------
Tested on: Micrococcus flavus
Assay Protocol: Antimicrobial activity against Micrococcus flavus after 24 hrs by microdilution technique
Assay type: functional
Listing of entries alongside the reported MBC.
Quick reminder: number only, in µM, skip the unit.

// MBC lookup, key: N#Cc1c(-c2ccc(Cl)cc2)cc(-c2ccc(Nc3nc(Nc4ccccc4)nc(Nc4ccccc4)n3)cc2)nc1N
344

Continuing:
// MBC lookup, key: Nc1nc(-c2ccc(Nc3nc(Nc4ccccc4)nc(Nc4ccccc4)n3)cc2)cc(-c2cccs2)n1
378

Here is the next compound: O=C(/C=C/c1ccc([N+](=O)[O-])cc1)c1ccc(Nc2nc(Nc3ccccc3)nc(Nc3ccccc3)n2)cc1
378

----------
Test system: Enterobacter cloacae
Assay Protocol: Antimicrobial activity against Enterobacter cloacae at 1 umol/disk after 24 hrs by disk diffusion assay
Format: functional
Activity calls are given as the source filed them. No cut-off for these calls is given here.
Property: inhibition zone (IZ)

// inhibition zone (IZ) lookup, key: O=C(/C=C/c1ccc(Cl)cc1)c1ccc(Nc2nc(Nc3ccccc3)nc(Nc3ccccc3)n2)cc1
inactive

Here is the next compound: N#Cc1c(-c2ccc(Cl)cc2)cc(-c2ccc(Nc3nc(Nc4ccccc4)nc(Nc4ccccc4)n3)cc2)nc1N
inactive

Here is the next compound: Nc1nc(-c2ccc(Cl)cc2)cc(-c2ccc(Nc3nc(Nc4ccccc4)nc(Nc4ccccc4)n3)cc2)n1
inactive
